Quick reference: IC50 of the listed items.
System: human CD4 T cells under Th17 conditions
Assay: cells
Settings: read-out: Th17 Proliferation (IC50, nM)

COc1nc2ccc([C@](O)(c3ccc(Cl)cc3)c3cncn3C)cc2c(Cl)c1Cc1ccc(-n2cccn2)cc1	> 240 nM
COc1nc2ccc([C@@](O)(c3ccc(C)nc3C)c3cnnn3C)cc2c(Cl)c1Cc1ccc(C(F)(F)F)cc1	> 240 nM

Next up:
Specify reported IC50 for the compound shown: `COc1nc2ccc([C@@](O)(c3ccccc3)C3CCN(C(C)=O)CC3)cc2c(Cl)c1Cc1ccc(-n2cccn2)cc1`
> 240 nM

###

Biological target: human RORγt LBD (Homo sapiens, UniProt P51449)
Sequence (P51449 269-508 limits assumed): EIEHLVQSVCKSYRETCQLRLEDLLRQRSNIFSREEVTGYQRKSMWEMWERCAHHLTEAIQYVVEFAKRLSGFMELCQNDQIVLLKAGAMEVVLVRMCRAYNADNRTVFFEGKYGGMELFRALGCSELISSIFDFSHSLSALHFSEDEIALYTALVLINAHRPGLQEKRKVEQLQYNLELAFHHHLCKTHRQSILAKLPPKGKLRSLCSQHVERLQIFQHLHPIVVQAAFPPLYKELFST
Test: RORγt cellular reporter assay (GAL4-RORγt LBD luciferase, HEK293T)
Details: 24 hours, read-out: RORγ/γt Cellular Reporter Assay (IC50)
quantity name: IC50 (nM)
Please reply with the bare figure in nM and do not write the unit itself.

Using human RORγt LBD (Homo sapiens, UniProt P51449) as the test system, report measured IC50 of `COc1nc2ccc([C@@](O)(c3ccccc3)C3CCN(C(C)=O)CC3)cc2c(Cl)c1Cc1ccc(-n2cccn2)cc1` .
28.9
